Reference source: patent US20120220577A1

# tested on: glycine binding pocket of the NMDA receptor (Rattus norvegicus, UniProt P35439)
# Construct: For isolation of the cell membranes, the cortices are homogenized; from tissue; host or cells: rat cerebral cortex membranes (male Sprague-Dawley)
# assay method text: [3H]MDL-105,519 displacement studies (rat cortical membranes)
# condition details: displacement of 2 nM [3H]-MDL-105,519, rat cortical membranes; read-out: NMDA-MDL 105519-r-CTX - IC50
Provide the reported pIC50 of each item.
# log scale: pIC50 equals minus log10 of the concentration in mol/L

Q: Tell me reported pIC50 for O=C(COc1cc(C(=O)O)cc2cc(Cl)cc(Cl)c12)NCc1ccccc1OCc1nnn[nH]1 , tested with glycine binding pocket of the NMDA receptor (Rattus norvegicus, UniProt P35439).
A: 6.60

Q: O=C(COc1cc(C(=O)O)cc2cc(Cl)cc(Cl)c12)Nc1cccc(-c2nnn[nH]2)c1 , same question.
A: 6.46

Q: N#CCc1ccc(NC(=O)COc2cc(C(=O)O)cc3cc(Cl)cc(Cl)c23)cc1 , same question.
A: 6.20

Q: O=C(COc1cc(C(=O)O)cc2cc(Cl)cc(Cl)c12)Nc1cccnc1 , same question.
A: 6.30

Q: O=C(COc1cc(C(=O)O)cc2cc(Cl)cc(Cl)c12)Nc1ccccn1 , same question.
A: 6.01

Q: O=C(COc1cc(C(=O)O)cc2cc(Cl)cc(Cl)c12)Nc1ccccc1 , same question.
A: 6.11

Q: NC(=O)COc1cccc(NC(=O)COc2cc(C(=O)O)cc3cc(Cl)cc(Cl)c23)c1 , same question.
A: 6.28

Q: O=C(O)c1cc(OCC(=O)N2c3ccccc3CC2c2nnn[nH]2)c2c(Cl)cc(Cl)cc2c1 (stereo not shown) , same question.
A: 6.04

Q: O=C(COc1cc(C(=O)O)cc2cc(Cl)cc(Cl)c12)NC(C(=O)O)c1ccccc1 (stereo not shown) , same question.
A: 6.10

Q: O=C(COc1cc(C(=O)O)cc2cc(Cl)cc(Cl)c12)Nc1cccc(CO)c1OCCO , same question.
A: 6.37

Q: O=C(COc1cc(C(=O)O)cc2cc(Cl)cc(Cl)c12)NCc1cccc(CO)c1 , same question.
A: 6.63

Q: CC(C)(Oc1ccccc1NC(=O)COc1cc(C(=O)O)cc2cc(Cl)cc(Cl)c12)C(=O)O , same question.
A: 5.92

Q: O=C(O)c1cc(OCC(=O)N2CCc3ccccc3C2)c2c(Cl)cc(Cl)cc2c1 , same question.
A: 5.64

Q: O=C(O)CC(Cc1ccccc1)NC(=O)COc1cc(C(=O)O)cc2cc(Cl)cc(Cl)c12 (stereo not shown) , same question.
A: 5.32

Q: O=C(COc1cc(C(=O)O)cc2cc(Cl)cc(Cl)c12)Nc1cccc2cc(C(=O)O)oc12 , same question.
A: 8.15

Q: O=C(COc1cc(C(=O)O)cc2cc(Cl)cc(Cl)c12)Nc1ccc(Cc2nnn[nH]2)cc1 , same question.
A: 5.74

Q: O=C(O)COc1ccc(NC(=O)COc2cc(C(=O)O)cc3cc(Cl)cc(Cl)c23)cc1 , same question.
A: 5.47

Q: O=C(O)Cc1ccc(NC(=O)COc2cc(C(=O)O)cc3cc(Cl)cc(Cl)c23)cc1 , same question.
A: 6.02

Q: NC(=O)c1cccc(NC(=O)COc2cc(C(=O)O)cc3cc(Cl)cc(Cl)c23)c1 , same question.
A: 6.55

Q: O=C(O)c1cc(OCC(=O)N2CCOc3c(CO)cccc32)c2c(Cl)cc(Cl)cc2c1 , same question.
A: 6.01

Q: O=C(COc1cc(C(=O)O)cc2cc(Cl)cc(Cl)c12)NCc1ccncc1 , same question.
A: 5.99

Q: O=C(O)COc1cccc(NC(=O)COc2cc(C(=O)O)cc3cc(Cl)cc(Cl)c23)c1 , same question.
A: 6.38

Q: O=C(COc1cc(C(=O)O)cc2cc(Cl)cc(Cl)c12)N[C@@H]1C[C@H]1c1ccccc1 (relative stereo) , same question.
A: 6.03

Q: O=C(COc1cc(C(=O)O)cc2cc(Cl)cc(Cl)c12)NCc1cccnc1 , same question.
A: 6.73

Q: CN(C(=O)COc1cc(C(=O)O)cc2cc(Cl)cc(Cl)c12)c1ccc(C(=O)O)cc1 , same question.
A: 5.36

Q: O=C(O)Cc1cccc(NC(=O)COc2cc(C(=O)O)cc3cc(Cl)cc(Cl)c23)c1 , same question.
A: 6.34

Q: O=C(O)COc1cc(C(=O)O)cc2cc(Cl)cc(Cl)c12 , same question.
A: 5.93

Q: CN(C)CCN(C)C(=O)COc1ccccc1NC(=O)COc1cc(C(=O)O)cc2cc(Cl)cc(Cl)c12 , same question.
A: 5.88
